# SUBJECT_OF_TEST: T1, hGITR.mFc (human)
# T1 construct: soluble dimeric construct with mouse Fc; also called dimeric human GITR
# T1 chain: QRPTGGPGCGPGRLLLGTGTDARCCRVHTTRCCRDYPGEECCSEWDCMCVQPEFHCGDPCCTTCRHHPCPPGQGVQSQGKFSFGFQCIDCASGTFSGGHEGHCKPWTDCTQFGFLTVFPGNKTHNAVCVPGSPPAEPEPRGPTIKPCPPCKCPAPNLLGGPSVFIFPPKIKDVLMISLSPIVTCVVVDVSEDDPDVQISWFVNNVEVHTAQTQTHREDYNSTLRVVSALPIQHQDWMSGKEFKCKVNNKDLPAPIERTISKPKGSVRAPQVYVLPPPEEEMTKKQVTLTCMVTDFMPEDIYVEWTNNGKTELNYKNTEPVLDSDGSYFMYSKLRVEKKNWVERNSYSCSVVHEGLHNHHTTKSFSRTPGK
# MEASUREMENT_DESCRIPTION: SPR 37C, mAb capture
PARAMETER_MEASURED: kon (M⁻¹ s⁻¹)
Hi! Could you send only the number? It should be in M⁻¹ s⁻¹, unit omitted.

Study these solved cases before continuing.
• H1H14474P (antibody, human IgG1, V domains shown, human IgG1 (H1H)) VH: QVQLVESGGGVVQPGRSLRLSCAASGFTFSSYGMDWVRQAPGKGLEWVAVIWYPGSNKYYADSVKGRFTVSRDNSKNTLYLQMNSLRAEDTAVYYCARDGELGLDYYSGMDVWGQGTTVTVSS VL: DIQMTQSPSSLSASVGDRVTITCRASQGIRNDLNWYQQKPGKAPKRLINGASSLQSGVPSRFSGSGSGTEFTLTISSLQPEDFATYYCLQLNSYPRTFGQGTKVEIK = 1.21e+06
• H1H14495P (antibody, human IgG1, V domains shown, human IgG1 (H1H)) VH: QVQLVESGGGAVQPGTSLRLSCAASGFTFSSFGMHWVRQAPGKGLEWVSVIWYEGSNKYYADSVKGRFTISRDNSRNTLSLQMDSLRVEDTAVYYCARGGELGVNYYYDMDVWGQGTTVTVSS VL: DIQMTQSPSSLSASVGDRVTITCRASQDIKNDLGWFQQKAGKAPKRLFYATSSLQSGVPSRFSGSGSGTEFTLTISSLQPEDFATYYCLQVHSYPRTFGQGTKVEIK = 1.14e+06

Field: next binder
Prompt line: Please give the measured kon for this binder: H4H14469P (antibody, human IgG4, V domains shown, human IgG4 (H4H)) VH: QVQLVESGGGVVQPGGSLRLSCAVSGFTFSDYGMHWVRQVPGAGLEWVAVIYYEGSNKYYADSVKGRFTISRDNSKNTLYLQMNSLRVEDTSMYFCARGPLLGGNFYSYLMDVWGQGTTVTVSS VL: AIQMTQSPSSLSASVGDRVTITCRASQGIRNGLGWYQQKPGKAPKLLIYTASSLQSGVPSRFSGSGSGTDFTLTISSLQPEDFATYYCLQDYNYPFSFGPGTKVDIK
Response line: 1.2e+06

Every entry's value here was drawn from patent US20170355774A1.
